Provenance of the data: ChEMBL document CHEMBL1201862

test system: NCI-H23; test: NCI tumour cell line growth inhibition, 48 h
Active and inactive are the calls of the source. No stated cut-off is given here; in the data, active = GI50 up to about 1.1 µM and inactive = higher.
measured-metric: GI50

> print(dat)
                                   molecule  assayed.system  measured.metric               result
1  O=C1C[C@H]2[C@H](c3ccc(Br)cc3)[C@H]3C(=O)c4ccccc4NC(=O)[C@@H]3[C@@]2(O)c2ccccc2N1         NCI-H23             GI50   10.4 µM (inactive)
2          CCOC(=O)C(=O)Nc1cc(Cl)c(Cl)cc1Cl         NCI-H23             GI50  > 100 µM (inactive)
3  CC(=O)N1N=C(c2ccc3ccccc3c2O)CC1c1ccc(N(C)C)cc1 (stereo not drawn)         NCI-H23             GI50  > 100 µM (inactive)

----------
// GI50 lookup, one value per entry
system: UACC-62; assay: NCI tumour cell line growth inhibition, 48 h
Calls of active or inactive are those of the source. No stated cut-off is given here; in the data, active = GI50 up to about 1.1 µM and inactive = higher.
measured-metric: GI50

> print(dat)
                                    molecule  measured.metric               result
 1       CCOC(=O)/C(C#N)=C/c1[nH]c(C)c(C)c1C             GI50  > 100 µM (inactive)
 2  CCC1NC(/N=N/c2ccc([N+](=O)[O-])cc2)(P(=O)(OC(C)C)OC(C)C)OC1=O (stereo unspecified)             GI50   97.1 µM (inactive)
 3            Cc1cc(=O)n2nc(SCc3ccccc3)sc2n1             GI50   28.4 µM (inactive)
 4  Cc1cccc(C)c1N1C(=O)C(=O)C(c2nc3ccccc3s2)/C(=N/c2cccc3c(=O)[nH][nH]c(=O)c23)C1=O (stereo unspecified)             GI50  > 100 µM (inactive)
 5      Nc1ccc(N)c2c1C(=O)c1c(N)ccc(N)c1C2=O             GI50   58.3 µM (inactive)
 6  O=[N+]([O-])c1cc(-[n+]2cc([O-])on2)ccc1Cl             GI50   27.8 µM (inactive)
 7           C/C(=C\c1ccccc1)n1c(=O)cc(C)n1C             GI50  > 100 µM (inactive)
 8  O=[N+]([O-])/C(C(Cl)=C(Cl)Cl)=C1\Nc2ccccc2O1             GI50   9.16 µM (inactive)
 9                     COCCOCc1nc(C#N)c(N)o1             GI50  > 100 µM (inactive)
10  CC#CC#C/C=C1/C=CC2(CCCCO2)O1 (stereo unspecified)             GI50   86.5 µM (inactive)
11   Cc1cc2c(cc1CO)N1Cc3cc(C)c(CO)cc3N(C2)C1             GI50  > 100 µM (inactive)

----------
tested on: OVCAR-5; assay: NCI tumour cell line growth inhibition, 48 h
Activity calls are given as the source filed them. Cut-off read from the data, not from the text of the source: active = GI50 up to about 1.1 µM and inactive = higher.
// GI50 lookup, one value per entry

compound	GI50
C=CC[C@H](C)CCC(=O)N1[C@H]2CC3CC[C@@]2(CS1(=O)=O)C3(C)C	> 100 µM (inactive)
CCOCc1cc(=O)c2cc3c(cc2o1)OC(C)(C)CC3	> 100 µM (inactive)
CC(=O)C1C(=O)C(=O)N(c2ccccc2N2C(=O)C(=O)C(C(C)=O)C2=O)C1=O (stereo not drawn)	> 100 µM (inactive)
CC(Oc1ccc(Cl)cc1Cl)C(=O)NN1C(=O)CC(=O)NC1=S (stereo not drawn)	> 100 µM (inactive)
O=C(O)/C(Cc1ccc([N+](=O)[O-])cc1)=N\O	> 100 µM (inactive)
CN(C)C(=S)/N=c1\ssc(=S)n1Cc1cccs1	> 55.3 µM (inactive)
O=C(O)C1C2CC3C(OC(=O)C31)C2Br (stereo not drawn)	> 100 µM (inactive)
Cc1cc(S(=O)(=O)Nc2cc(N)n[nH]2)c(SCc2nc(N)nc(N(C)C)n2)cc1Cl	> 10 µM (inactive)
CC(C)OC(=O)c1ccc(CCc2cc(O)c(Br)cc2O)cc1	17.5 µM (inactive)
N#CC(C#N)=CNCCN1CCN(C=C(C#N)C#N)CC1	> 100 µM (inactive)
CCCCOCCOC1=C(Cl)C(=O)c2c(O)ccc(O)c2C1=O	1.37 µM (inactive)
Nc1ccccc1OCCCOc1ccccc1N	> 100 µM (inactive)
COC(=O)C1=C(OC(=O)/C(=C/c2ccc(Cl)cc2Cl)c2ccc(Cl)cc2Cl)C(C(=O)OC)[C@@]2(O)[C@@H](C(=O)OC)[C@H](C)C[C@@H]1[C@@H]2C(=O)OC (stereo partly drawn)	> 100 µM (inactive)
Cc1cccc2c1c(=O)c1c(O)cc(O)cc1n2C	> 100 µM (inactive)
C=C1CC(OC(C)=O)/C=C(/C)CCC(C(C)(C)O)CC1O (stereo not drawn)	> 100 µM (inactive)
C/C(=N\O)c1sc(-n2nc(-c3ccccc3)cc2-c2ccccc2)nc1C	> 10 µM (inactive)
Nc1ccc(N)c2c1C(=O)c1c(N)ccc(N)c1C2=O	> 100 µM (inactive)
CC(C)=C1C(=O)C[C@]2(C)C[C@H]3O[C@]3(C)CC[C@@H]3O[C@@]3(C)CC[C@@H]12	> 50 µM (inactive)
CCOC(=O)C1C(=O)c2ccccc2CN1Cc1ccccc1 (stereo not drawn)	> 100 µM (inactive)
COc1ccc(C2(O)c3ccccc3C(=O)N(C)C2(O)c2ccc(OC)cc2)cc1 (stereo not drawn)	> 100 µM (inactive)
COc1ccc(NC(=O)CC(=O)NN2C(=O)/C(=C/c3ccc(N(CCC#N)CCC#N)cc3C)N=C2/C=C\c2ccccc2)cc1	> 100 µM (inactive)
Cn1c(=O)c2c(nc3n(CC(O)CCl)c(=O)ccn23)n(C)c1=O (stereo not drawn)	> 100 µM (inactive)
O=C1CSC(/C=C/c2ccccc2)N1c1ccc(-n2c(-c3ccccc3)nc3ccccc3c2=O)cc1 (stereo not drawn)	> 100 µM (inactive)
O=C(Nc1ccccc1-c1nn(CO)c(=S)n(CO)c1=O)C(F)(F)F	> 100 µM (inactive)
O=C1OC(c2ccccc2)=N/C1=C/C=C/c1ccco1	> 100 µM (inactive)
NN=C(CC(O)(C(F)(F)Cl)C(F)(F)Cl)CC(O)(C(F)(F)Cl)C(F)(F)Cl	> 10 µM (inactive)
Nc1nc(Cl)cc(NCCCCO)n1	> 100 µM (inactive)
Brc1cccc(/C=C/CN2CCN(CCOC(c3ccccc3)c3ccccc3)CC2)c1	16.2 µM (inactive)
CC(=O)OC1CCC2(C)C(CCC3C4CC=C(C5(C)OCCO5)C4(C)CCC32)C1 (stereo not drawn)	22.1 µM (inactive)
O=c1oc2ccccc2cc1-c1nc2ccccc2s1	23.3 µM (inactive)
COc1ccc(N/N=C(\CCN(C)C)c2ccccc2)cc1	9.57 µM (inactive)
Cc1ccc(NC(=O)CC(=O)N2N=C(N(CCC#N)c3cccc(C)c3)CC2c2ccccc2)cc1 (stereo not drawn)	> 100 µM (inactive)
O=c1[nH]n(Cc2ccccc2CCl)c2ccc([N+](=O)[O-])cc12	> 100 µM (inactive)
C1CSCC2(COC2)CSCCSCC2(COC2)CS1	> 100 µM (inactive)
CCOc1ccc2nc(NC(=O)C(=O)C(c3cnc4ccccc4n3)[N+](=O)[O-])sc2c1 (stereo not drawn)	> 100 µM (inactive)
CC(C)(CCc1nc2ccccc2[nH]1)C(=O)O	> 100 µM (inactive)
COC(=O)c1nc2c(C)c(O)c(O)c([C@H](C)CCC=C(C)C)c2o1	58.6 µM (inactive)
CCCCN(C)CC(C(C)=O)C(c1ccccc1)c1c(O)c2ccccc2oc1=O (stereo not drawn)	> 100 µM (inactive)
CCCCCCCCSC(=O)NCCCC	48.4 µM (inactive)
CC(=O)/C=c1\[nH]/c(=C\C=C\c2ccccc2)c(=O)n1/C=C1\C(=O)Oc2ccccc2C1=O	> 100 µM (inactive)
O=c1c(Cl)cc2nc3ccccc3sc-2c1Cl	24.7 µM (inactive)
COc1cc(/C=C2\CCc3cc(OC)c(OC)cc3C2=O)cc(OC)c1	24.2 µM (inactive)
CCc1nnc(S)n1/N=C\c1ccc(-c2ccccc2[N+](=O)[O-])o1	50.7 µM (inactive)

----------
system: SNB-75; experiment: NCI tumour cell line growth inhibition, 48 h
Activity calls are given as the source filed them. No stated cut-off is given here; in the data, active = GI50 up to about 1.1 µM and inactive = higher.
measured-metric: GI50

> print(dat)
                                   compound               result
1  CC(C)=C1C(=O)C[C@]2(C)C[C@H]3O[C@]3(C)CC[C@@H]3O[C@@]3(C)CC[C@@H]12   > 50 µM (inactive)
2  CC(C)=CC(C(O)c1ccccc1)S(=O)(=O)c1nccn1C (centres undefined)  > 100 µM (inactive)
3  COc1c(OC(C)=O)cc2c(OC(C)=O)c1CC(C)CC(OC)C(O)C(C)/C=C(\C)C(OC(N)=O)C(OC)/C=C\C=C(/C)C(=O)N2 (centres undefined)  > 100 µM (inactive)
4  Cc1cnc2c(c1)C(=O)C1=C(C2=O)C2OC(=O)CC2OC1(C)C (centres undefined)   1.69 µM (inactive)
